All figures here come from patent US10208019B2.

- assayedTarget: human GLP-1R (Homo sapiens, UniProt P43220, G168S)
- Sequence (P43220 24-463 G168S limits assumed): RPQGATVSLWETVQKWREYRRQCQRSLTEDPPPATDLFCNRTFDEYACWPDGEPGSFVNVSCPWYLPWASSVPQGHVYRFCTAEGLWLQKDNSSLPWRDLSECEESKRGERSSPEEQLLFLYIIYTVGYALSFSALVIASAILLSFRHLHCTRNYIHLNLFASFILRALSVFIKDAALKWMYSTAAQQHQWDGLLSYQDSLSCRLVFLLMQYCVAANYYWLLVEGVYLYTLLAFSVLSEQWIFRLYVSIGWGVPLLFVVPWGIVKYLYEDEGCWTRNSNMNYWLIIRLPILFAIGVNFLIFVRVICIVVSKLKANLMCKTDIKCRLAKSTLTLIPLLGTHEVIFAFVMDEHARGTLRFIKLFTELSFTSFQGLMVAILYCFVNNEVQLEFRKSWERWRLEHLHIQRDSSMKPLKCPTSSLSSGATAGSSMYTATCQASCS
- assayProcedure: CHO GLP-1R Clone H6—Assay 1: HTRF cAMP cell-based functional agonist assay (high GLP-1R density)
- conditionContext: read-out: Assay 1 EC50; CHO GLP-1R Clone H6, cAMP HTRF; geometric mean
The entries below are paired with their reported EC50.
The response must be a number in nM with no trailing unit.

Reference set (3 entries):
CC[C@H]1CN(c2cccc(OCc3ccc(Cl)cc3F)n2)CCN1Cc1nc2ccc(C(=O)O)cc2n1CCOC [Example 12A-07] | 37
O=C(O)c1ccc2nc(CN3CCC(c4cccc(OCc5ccc(Cl)cc5F)n4)CC3)n(C[C@@H]3CCO3)c2c1 | 0.94
Cn1c(CN2CCC(c3cccc(OCc4cccc(F)c4F)n3)CC2)nc2ccc(C(=O)O)cc21 | 2400

EC50 recorded for this molecule, Cn1cc(Cn2c(CN3CCC(c4cccc(OCc5ccc(Cl)cc5F)n4)CC3)nc3ccc(C(=O)O)cc32)nn1 [Example 11A-36] , is 110
